The measurements presented in this section are drawn from ChEMBL document CHEMBL4477276.

system: Aromatase (Homo sapiens, UniProt P11511)
Sequence (P11511 whole entry): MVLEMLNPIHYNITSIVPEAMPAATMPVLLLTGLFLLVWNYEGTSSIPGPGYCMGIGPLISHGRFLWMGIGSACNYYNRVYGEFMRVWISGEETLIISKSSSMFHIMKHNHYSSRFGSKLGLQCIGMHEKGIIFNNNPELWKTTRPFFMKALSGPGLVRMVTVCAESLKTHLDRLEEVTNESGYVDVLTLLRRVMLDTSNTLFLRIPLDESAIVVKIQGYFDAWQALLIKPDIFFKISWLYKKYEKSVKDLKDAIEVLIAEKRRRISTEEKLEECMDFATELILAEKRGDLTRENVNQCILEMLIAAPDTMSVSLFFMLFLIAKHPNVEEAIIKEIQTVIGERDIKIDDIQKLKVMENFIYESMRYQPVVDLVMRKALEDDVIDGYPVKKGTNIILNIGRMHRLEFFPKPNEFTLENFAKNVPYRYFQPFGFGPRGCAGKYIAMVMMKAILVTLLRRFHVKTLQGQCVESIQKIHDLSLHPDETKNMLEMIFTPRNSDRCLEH
assay procedure: Inhibition of recombinant human aromatase using 7-methoxy-trifluoromethylcoumarin as substrate incubated for 30 mins by fluorescence microplate reader analysis
Recorded IC50 by entry
Give your result in nM as a bare value.

Solved cases (4 shown):
1) O=[N+]([O-])c1cccc(CN(c2ccc([N+](=O)[O-])c(-c3ccccc3)c2)n2cnnc2)c1	19.7
2) O=[N+]([O-])c1ccc(N(Cc2cccc(C(F)(F)F)c2)n2cnnc2)cc1Br	17.4
3) N#Cc1ccccc1CN(c1ccc([N+](=O)[O-])c(Br)c1)n1cnnc1	58.8
4) O=[N+]([O-])c1ccc(N(Cc2ccccc2)n2cnnc2)cc1-c1ccccc1	30.2

Could you now consider this next compound?
INPUT: Name the reported IC50 value associated with the compound O=[N+]([O-])c1cccc(CN(c2ccc([N+](=O)[O-])c(Br)c2)n2cnnc2)c1
OUTPUT: 12.1
